target: Solute carrier family 2, facilitated glucose transporter member 1 (Homo sapiens, UniProt P11166); test: Inhibition of GLUT1 in human wild-type DLD-1 cells assessed as reduction in ATP level measured after 90 mins by Celltiter-glo luminescent assay
Sequence (P11166 whole entry): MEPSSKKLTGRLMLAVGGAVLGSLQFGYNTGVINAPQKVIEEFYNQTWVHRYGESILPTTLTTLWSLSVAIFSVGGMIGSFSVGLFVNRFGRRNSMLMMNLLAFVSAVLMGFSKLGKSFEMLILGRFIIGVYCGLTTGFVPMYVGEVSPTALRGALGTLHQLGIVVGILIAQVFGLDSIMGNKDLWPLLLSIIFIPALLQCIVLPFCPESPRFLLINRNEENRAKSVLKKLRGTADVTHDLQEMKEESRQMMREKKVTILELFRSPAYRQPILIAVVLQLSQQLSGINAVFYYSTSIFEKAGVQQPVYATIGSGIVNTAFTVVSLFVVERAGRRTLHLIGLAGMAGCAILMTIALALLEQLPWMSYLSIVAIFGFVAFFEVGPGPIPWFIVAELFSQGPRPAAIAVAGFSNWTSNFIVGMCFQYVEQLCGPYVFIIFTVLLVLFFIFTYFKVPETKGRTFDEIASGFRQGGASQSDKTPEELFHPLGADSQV
IC50 for assorted compounds

{"Compound": "CCOC(=O)Cn1c2c(c3ccccc31)C[C@@H]1C[C@@H]2[C@H](OC)CN1C(=O)c1cccnc1SC", "Value Units": "µM", "IC50": 0.0596}
{"Compound": "C/C(=N\\O)c1ccc(-c2ccc(O)c(Cl)c2)c(Cl)c1O", "Value Units": "µM", "IC50": 0.29}
{"Compound": "COc1ccc(C2=CC(c3ccc(F)cc3)N(C(=O)CSc3c(C)[nH]c4ccccc34)N2)cc1 (centres undefined)", "Value Units": "µM", "IC50": 0.61}
{"Compound": "COc1ccc(-c2ccc(/C(C)=N/O)c(O)c2Cl)cc1", "Value Units": "µM", "IC50": 1.67}
{"Compound": "COCc1c(C(=O)N2CCN(c3ccccc3)CC2)cnn1-c1ncc2c(n1)-c1ccccc1CCC2", "Value Units": "µM", "IC50": 6.08}
{"Compound": "COc1ccc(-n2cc(-c3ccc(Cl)cc3)nc2NC(=O)CN(Cc2ccccc2)C(=O)c2ccc(C)cc2)cc1OC", "Value Units": "µM", "IC50": 1.89}
{"Compound": "C/C(=N\\O)c1ccc(-c2ccc(O)c(C)c2)c(Cl)c1O", "Value Units": "µM", "IC50": 7}
{"Compound": "O=C(COc1ccc(-c2csc3ccccc23)cc1CN1CCN(c2ccccn2)CC1)NCc1nccs1", "Value Units": "µM", "IC50": 6.32}
{"Compound": "CN(Cc1cccc2ncccc12)C(=O)c1cnn(-c2ncc3c(n2)-c2ccccc2CC3)c1C1CC1", "Value Units": "µM", "IC50": 7.07}

----------
pIC50 for assorted compounds
system: 3T3-L1; assay: Induction of glucose uptake in mouse 3T3-L1 cells assessed as increase in glucose uptake; assay type: functional, cell-based
pIC50: −log10 of the molar value.

{"Compound": "O=C(Nc1ccc(Cl)c(C(F)(F)F)c1)c1ccc(Cl)cc1", "pIC50": 4.21}
{"Compound": "O=C1CC(c2ccc(-c3cc[nH]n3)s2)c2cc(N3CCNC3=O)ccc2N1 (stereo not drawn)", "pIC50": 4.48}
{"Compound": "CC/C=C\\C/C=C\\C/C=C\\C/C=C\\C/C=C\\C/C=C\\CCC(=O)O", "pIC50": 6.10}

----------
biological target: Solute carrier family 2, facilitated glucose transporter member 9 (Homo sapiens, UniProt Q9NRM0); assay: Inhibition of GLUT9 (unknown origin) overexpressed in uric acid-induced HEK293 cells by patch clamp analysis
Sequence (Q9NRM0 whole entry): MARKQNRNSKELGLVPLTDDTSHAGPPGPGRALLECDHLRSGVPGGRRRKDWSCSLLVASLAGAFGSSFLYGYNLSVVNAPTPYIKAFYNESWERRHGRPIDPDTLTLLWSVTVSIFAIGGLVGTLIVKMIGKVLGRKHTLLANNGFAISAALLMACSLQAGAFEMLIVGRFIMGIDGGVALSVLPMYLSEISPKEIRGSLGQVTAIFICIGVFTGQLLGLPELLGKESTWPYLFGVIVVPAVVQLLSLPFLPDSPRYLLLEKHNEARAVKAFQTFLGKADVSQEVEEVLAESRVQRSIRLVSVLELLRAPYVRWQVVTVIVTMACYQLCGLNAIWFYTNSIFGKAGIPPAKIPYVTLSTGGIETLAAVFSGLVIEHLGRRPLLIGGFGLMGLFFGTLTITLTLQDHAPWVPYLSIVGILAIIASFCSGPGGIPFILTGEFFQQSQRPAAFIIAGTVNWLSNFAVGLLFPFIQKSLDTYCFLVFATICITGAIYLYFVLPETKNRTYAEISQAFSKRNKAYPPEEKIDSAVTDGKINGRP
pIC50: −log10 of the molar value.

{"Substance Smiles": "O=C(CCc1ccc(O)cc1)c1c(O)cc(O)cc1O", "pIC50": 4.31}
{"Substance Smiles": "CCOC(=O)Cn1c2c(c3ccccc31)C[C@@H]1C[C@@H]2[C@H](OC)CN1C(=O)c1cccnc1SC", "pIC50": 4.94}
{"Substance Smiles": "CCOc1cccc2c1O[C@]1(C)C[C@@H]2NC(=O)N1c1cccc(C(=O)NCCc2ccc(C)cc2)c1", "pIC50": 6.49}
{"Substance Smiles": "C=C1[C@@H](C)[C@H]2[C@H](Cc3ccccc3)NC(=O)[C@]23OC(=O)/C=C/[C@H](O)CCC[C@@H](C)C/C=C/[C@H]3[C@@H]1O", "pIC50": 6.36}
{"Substance Smiles": "COc1cc(/C=C/C(=O)CC(=O)/C=C/c2ccc(O)c(OC)c2)ccc1O", "pIC50": 4.72}
{"Substance Smiles": "O=c1cc(-c2ccc(O)cc2)oc2cc(O)cc(O)c12", "pIC50": 5.58}
